assay: Dissociation constant was determined; format: physicochemical
metric: pKa

Suppose we examine the compound NS(=O)(=O)Oc1cccc(F)c1 ; what pKa value has been reported? 9.16

Returns the measured pKa for the input compound. Input: N#Cc1ccc(OS(N)(=O)=O)cc1 8.02

Field request: pKa | item: NS(=O)(=O)Oc1cccc([N+](=O)[O-])c1 8.28

Param item = NS(=O)(=O)Oc1ccc(F)cc1 ; retrieve measured pKa. 9.8

Bench note: what pKa did Cc1cccc(OS(N)(=O)=O)c1 show? 10

What measured pKa goes with NS(=O)(=O)Oc1ccccc1 [PHENYLSULFAMATE] ? 9.98

Given NS(=O)(=O)Oc1cccc(Br)c1 , state its recorded pKa. 8.95

Need pKa, item NS(=O)(=O)Oc1ccc(Br)cc1 9.29

Which pKa value belongs to N#Cc1cccc(OS(N)(=O)=O)c1 ? 8.54

Returns the measured pKa for the input compound. Input: NS(=O)(=O)Oc1ccc(Cl)cc1 9.5

Fill blank: measured pKa of the compound NS(=O)(=O)Oc1ccc([N+](=O)[O-])cc1 is ____. 7.15

May I ask what pKa has been recorded for Cc1ccc(OS(N)(=O)=O)cc1 ? 10.2

Requested field: pKa. Item: NS(=O)(=O)Oc1cccc(Cl)c1 9

----------
biological target: Steryl-sulfatase (Homo sapiens) (UniProt P08842); experiment: Potency for the inhibition of estrone sulfatase relative to coumate
metric: Relative potency

What value of Relative potency has been recorded for this entry: NS(=O)(=O)Oc1ccc(Cl)cc1 132

Please give the measured Relative potency for this molecule: NS(=O)(=O)Oc1cccc(Br)c1 21

P: NS(=O)(=O)Oc1cccc(Cl)c1
Q: NS(=O)(=O)Oc1ccc([N+](=O)[O-])cc1
R: NS(=O)(=O)Oc1ccc(Br)cc1
S: NS(=O)(=O)Oc1cccc([N+](=O)[O-])c1
T: N#Cc1cccc(OS(N)(=O)=O)c1
Rank ascending by Relative potency. Present the labels in the sequence the task asks for. S, T, Q, P, R

P: N#Cc1ccc(OS(N)(=O)=O)cc1
Q: NS(=O)(=O)Oc1cccc(F)c1
Select the item whose Relative potency value is smaller, choosing between P and Q . Lab note: record the label of whichever item you select. P
(P: 25, Q: 174)

----------
Biological target: Steryl-sulfatase (Homo sapiens)
Sequence (P08842 whole entry): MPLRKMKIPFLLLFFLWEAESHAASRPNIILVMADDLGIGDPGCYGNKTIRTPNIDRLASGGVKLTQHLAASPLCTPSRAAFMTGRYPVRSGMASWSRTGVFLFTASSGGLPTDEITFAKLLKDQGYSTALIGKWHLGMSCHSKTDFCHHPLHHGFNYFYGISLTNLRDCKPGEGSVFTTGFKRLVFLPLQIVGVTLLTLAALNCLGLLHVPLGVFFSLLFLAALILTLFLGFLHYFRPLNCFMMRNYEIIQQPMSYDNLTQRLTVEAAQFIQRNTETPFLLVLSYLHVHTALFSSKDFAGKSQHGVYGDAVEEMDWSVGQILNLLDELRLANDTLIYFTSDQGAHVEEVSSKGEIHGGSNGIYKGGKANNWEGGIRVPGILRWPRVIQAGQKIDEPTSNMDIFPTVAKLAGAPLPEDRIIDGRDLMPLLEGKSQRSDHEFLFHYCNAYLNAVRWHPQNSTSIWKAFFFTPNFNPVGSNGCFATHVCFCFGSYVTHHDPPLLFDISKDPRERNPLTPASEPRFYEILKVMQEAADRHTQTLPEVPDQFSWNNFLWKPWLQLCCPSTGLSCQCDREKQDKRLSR
pIC50: −log10 of the molar value.
metric: pIC50

1: NS(=O)(=O)Oc1ccc(Br)cc1
2: NS(=O)(=O)Oc1ccc([N+](=O)[O-])cc1
Short answer wanted: higher pIC50, 1 or 2 ? Mark your selection by writing its label. 2
(2: 3.48, 1: 3.04)

I: NS(=O)(=O)Oc1cccc(Br)c1
II: NS(=O)(=O)Oc1cccc(F)c1
Lab log: flag the item ( I or II ) with the smaller pIC50 figure. Answer format: the label of the selected item. II
(II: 2.68, I: 3.59)

----------
Target: Steryl-sulfatase (Homo sapiens, UniProt P08842)
Sequence (P08842 whole entry): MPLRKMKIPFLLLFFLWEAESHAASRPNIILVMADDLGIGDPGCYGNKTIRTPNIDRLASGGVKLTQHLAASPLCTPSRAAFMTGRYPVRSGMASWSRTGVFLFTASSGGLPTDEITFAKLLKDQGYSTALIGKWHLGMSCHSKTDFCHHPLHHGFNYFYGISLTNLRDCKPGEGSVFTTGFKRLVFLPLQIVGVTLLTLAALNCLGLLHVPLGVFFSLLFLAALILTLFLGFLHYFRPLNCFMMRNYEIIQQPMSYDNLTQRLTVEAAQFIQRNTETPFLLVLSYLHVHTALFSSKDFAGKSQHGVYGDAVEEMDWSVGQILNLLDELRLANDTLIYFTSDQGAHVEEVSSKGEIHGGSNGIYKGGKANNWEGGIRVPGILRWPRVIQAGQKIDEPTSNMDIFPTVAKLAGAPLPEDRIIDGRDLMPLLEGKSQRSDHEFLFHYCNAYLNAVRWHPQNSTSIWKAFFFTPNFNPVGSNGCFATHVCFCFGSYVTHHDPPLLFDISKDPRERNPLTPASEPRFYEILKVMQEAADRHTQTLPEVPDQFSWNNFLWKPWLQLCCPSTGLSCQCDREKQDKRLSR
pIC50: −log10 of the molar value.
metric: pIC50

Would you kindly share the measured pIC50 for NS(=O)(=O)Oc1ccccc1 [PHENYLSULFAMATE] ? < 2.00

Any idea what pIC50 was measured for Cc1cccc(OS(N)(=O)=O)c1 ? < 2.00

Please find the next compound below.
Need pIC50 of C[C@]12CC[C@@H]3c4ccc(OS(N)(=O)=O)cc4CC[C@H]3[C@@H]1CCC2=O [EMATE] , thanks. 7.00
